test system: P. falciparum stage V gametocytes; parameters: BacTiter-Glo ATP luminescence viability of purified stage V gametocytes in 384-well plates, per cent inhibition versus DMSO; conditions: 48 h, 5 µM; inhibitor
About 3,200 (25%) of roughly 13,000 compounds showed an effect of 50% or more. The list shows a part of the results.
Attribute: % Inhibition
measured.endpoint: % Inhibition (%)

In [3]: df
Out[3]:
                                   compound                   target_or_system  measured_endpoint  data_value
0  COc1cc2ncnc(Nc3ccc4nc(-c5ccccc5)[nH]c4c3)c2cc1OC  P. falciparum stage V gametocytes       % Inhibition       -26.1
1  CCCNCc1ccc(-c2ccc(CN(Cc3cnc(C)cn3)C(=O)CC#N)cc2)nc1  P. falciparum stage V gametocytes       % Inhibition       78.38
2  CO/C(=C\C=C\c1cc2cc(Cl)c(Cl)cc2[nH]1)C(=O)N[C@H]1CN2CCC1CC2  P. falciparum stage V gametocytes       % Inhibition      -57.18
3  CO/C(=C\C=C\c1cc2cc(Cl)c(Cl)cc2[nH]1)C(=O)NC1CC2CCC(C1)N2C (stereo not shown)  P. falciparum stage V gametocytes       % Inhibition       73.28
